- Tested on: Staphylococcus aureus 503
- assayText: In Vitro Anti-Bacterial Activity Test (MIC, agar dilution)
- Type: cell-based
- conditionNotes: Staphylococcus aureus 503; Muller-Hinton agar, 37° C., 18 hours; read-out: MIC
Structures can show the parent of a compound that is named as a salt.
recordedMetric: MIC (µg/mL)
Give your result in µg/mL as a bare value.

Consider the reported MIC for these compounds:
| compound | MIC (µg/mL) |
| --- | --- |
| N#CCC(=O)c1cn(C2CC2)c2c(Cl)c(N3CCC(N)C3)c(F)cc2c1=O (centres unmarked) [Example 42, hydrochloride] | 3.12 |
| COc1c(N2CCC(N)C2)c(F)cc2c(=O)c(C(=O)C[N+](=O)[O-])cn(C3CC3)c12 (centres unmarked) [Example 49, hydrochloride] | 0.098 |
| O=C(C[N+](=O)[O-])c1cn(C2CC2)c2cc(N3CCNCC3)c(F)cc2c1=O [Example 4, hydrochloride] | 0.781 |
| CCOC(=O)C(C(=O)OCC)C(=O)c1cn(C2CC2)c2c(Cl)c(N3CC[C@H](N)C3)c(F)cc2c1=O [Example 24, hydrochloride] | 0.049 |
| CCOC(=O)CC(=O)c1cn(C2CC2)c2c(Cl)c(N3CC=C(CNC)C3)c(F)cc2c1=O [Example 29, hydrochloride] | 0.013 |

### Prompt Quick one: MIC of CCOC(=O)C(C#N)C(=O)c1cn(C2CC2)c2c(Cl)c(N3CCC(N)C3)c(F)cc2c1=O (centres unmarked) [Example 39, hydrochloride] ?
### Response 1.56

### Prompt Quick one: MIC of C[C@@H]1CN(c2c(F)c(N)c3c(=O)c(C(=O)C[N+](=O)[O-])cn(C4CC4)c3c2F)C[C@H](C)N1 [Example 14, hydrochloride] ?
### Response 0.049

### Prompt Quick one: MIC of CCOC(=O)C(C(=O)OCC)C(=O)c1cn(C2CC2)c2c(Cl)c(N3CC[C@@H](NC)C3)c(F)cc2c1=O [Example 55, hydrochloride] ?
### Response 0.195

### Prompt Quick one: MIC of CC(=O)CC(=O)c1cn(C2CC2)c2c(Cl)c(N3CCC(N)C3)c(F)cc2c1=O (centres unmarked) [Example 37, hydrochloride] ?
### Response 0.781

### Prompt Quick one: MIC of NC1CCN(c2nc3c(cc2F)c(=O)c(C(=O)C[N+](=O)[O-])cn3-c2ccc(F)cc2F)C1 (centres unmarked) ?
### Response 0.025

### Prompt Quick one: MIC of CCn1cc(C(=O)C[N+](=O)[O-])c(=O)c2cc(F)c(N3CCC(N)C3)c(F)c21 (centres unmarked) [Example 30, hydrochloride] ?
### Response 0.195

### Prompt Quick one: MIC of CNC1CCN(c2c(F)cc3c(=O)c(C(=O)C[N+](=O)[O-])cn(C4CC4)c3c2Cl)C1 (centres unmarked) [Example 63, hydrochloride] ?
### Response 0.049

Source: patent US5409933A
